Cited source for all entries: paper PMC8745314

Listed molecules paired with reported MIC
system: S. aureus ATCC 29213; experiment: MIC broth microdilution, standard strain; format: cell-based; details: Staphylococcus aureus, ATCC29213; S. aureus ATCC 29213, standard strain, 19 h at 35 °C; read-out: minimal inhibitory concentration (MIC)
Write down the numeric answer in µg/mL and omit the unit.

INSERT INTO results (molecule, recorded_value) VALUES
  ('CC(C)C12C=CC(C)(CC1)C1C(=O)N(Nc3nnnn3-c3ccccc3)C(=O)C12 (stereo not drawn) [Compound 11]', 128),
  ('CC1=C(C)C2(C)CC1(C)C1C(=O)N(Nc3nnnn3-c3ccc([N+](=O)[O-])cc3)C(=O)C12 (stereo not drawn) [Compound 4]', 16);

With those in mind, consider the next molecule.
Enquiry: Would you kindly share the measured MIC for CC(C)C12C=CC(C)(CC1)C1C(=O)N(Nc3nnnn3-c3ccc([N+](=O)[O-])cc3)C(=O)C12 (stereo not drawn) [Compound 8] ?
Return: 8

----------
tested on: S. aureus ATCC 6538; assay: MIC broth microdilution, standard strain; format: cell-based; conditions: Staphylococcus aureus, ATCC6538; S. aureus ATCC 6538, standard strain, 19 h at 35 °C; read-out: minimal inhibitory concentration (MIC)
measured_metric: MIC (µg/mL)
Write down the numeric answer in µg/mL and omit the unit.

Sample records with MIC:
INSERT INTO results (compound, recorded_value) VALUES
  ('CC(C)C12C=CC(C)(CC1)C1C(=O)N(Nc3nnnn3-c3ccccc3Cl)C(=O)C12 (centres unmarked) [Compound 7]', 32),
  ('CC1=C(C)C2(C)CC1(C)C1C(=O)N(Nc3nnnn3-c3ccccc3Br)C(=O)C12 (centres unmarked) [Compound 3]', 0.2),
  ('CC(C)C12C=CC(C)(CC1)C1C(=O)N(Nc3nnnn3-c3ccccc3Br)C(=O)C12 (centres unmarked) [Compound 9]', 64),
  ('CC1=C(C)C2(C)CC1(C)C1C(=O)N(Nc3nnnn3-c3ccccc3)C(=O)C12 (centres unmarked) [Compound 6]', 2),
  ('CC1=C(C)C2(C)CC1(C)C1C(=O)N(Nc3nnnn3-c3ccccc3Cl)C(=O)C12 (centres unmarked) [Compound 2]', 0.4);

Enquiry: Would you kindly share the measured MIC for Cc1ccc(-n2nnnc2NN2C(=O)C3C(C2=O)C2(C(C)C)C=CC3(C)CC2)cc1 (centres unmarked) [Compound 10] ?
Return: 4

----------
system: S. aureus T5592; assay: MIC broth microdilution, clinical isolate; assay type: cell-based; conditions: Staphylococcus aureus, 19 h at 35 °C, read-out: minimal inhibitory concentration (MIC)
Listed compounds paired with reported MIC

Sample records with MIC:
INSERT INTO results (compound, recorded_value) VALUES
  ('CC1=C(C)C2(C)CC1(C)C1C(=O)N(Nc3nnnn3-c3cccc(C(F)(F)F)c3)C(=O)C12 (stereo not shown)', '0.8 µg/mL'),
  ('Cc1ccc(-n2nnnc2NN2C(=O)C3C(C2=O)C2(C(C)C)C=CC3(C)CC2)cc1 (stereo not shown)', '16 µg/mL'),
  ('CC1=C(C)C2(C)CC1(C)C1C(=O)N(Nc3nnnn3-c3ccc([N+](=O)[O-])cc3)C(=O)C12 (stereo not shown)', '16 µg/mL');

With those in mind, consider the next compound.
Enquiry: Would you kindly share the measured MIC for CC(C)C12C=CC(C)(CC1)C1C(=O)N(Nc3nnnn3-c3ccc([N+](=O)[O-])cc3)C(=O)C12 (stereo not shown) ?
Return: 16 µg/mL

----------
Listed compounds paired with reported MIC
test system: K. pneumoniae 510; test: MIC broth microdilution, clinical isolate; format: cell-based; settings: Klebsiella pneumoniae; K. pneumoniae 510, clinical isolate, 19 h at 35 °C; read-out: minimal inhibitory concentration (MIC)
Write down the numeric answer in µg/mL and omit the unit.

Sample records with MIC:
INSERT INTO assay_data (compound, tgt, recorded_value) VALUES
  ('CC1=C(C)C2(C)CC1(C)C1C(=O)N(Nc3nnnn3-c3ccc([N+](=O)[O-])cc3)C(=O)C12 (stereo not shown)', 'K. pneumoniae 510', 256),
  ('CC1=C(C)C2(C)CC1(C)C1C(=O)N(Nc3nnnn3-c3ccccc3Cl)C(=O)C12 (stereo not shown)', 'K. pneumoniae 510', 3.2);

Enquiry: Would you kindly share the measured MIC for CC1=C(C)C2(C)CC1(C)C1C(=O)N(Nc3nnnn3-c3ccccc3Br)C(=O)C12 (stereo not shown) ?
Return: 3.2

----------
test system: E. coli 520; test: MIC broth microdilution, clinical isolate; assay type: cell-based; settings: Escherichia coli; E. coli 520, clinical isolate, 19 h at 35 °C; read-out: minimal inhibitory concentration (MIC)
measured_metric: log10 of MIC (log10 of the value in µg/mL)
Form field - Quantity: MIC; Unit: µg/mL; Scale: log10

Sample records with log10 of MIC:
INSERT INTO measurements (molecule, recorded_value) VALUES
  ('CC(C)C12C=CC(C)(CC1)C1C(=O)N(Nc3nnnn3-c3ccccc3Br)C(=O)C12 (centres unmarked)', 0.90),
  ('CC1=C(C)C2(C)CC1(C)C1C(=O)N(Nc3nnnn3-c3cccc(C(F)(F)F)c3)C(=O)C12 (centres unmarked)', 0.51),
  ('CC1=C(C)C2(C)CC1(C)C1C(=O)N(Nc3nnnn3-c3ccccc3Br)C(=O)C12 (centres unmarked)', 0.20),
  ('CC1=C(C)C2(C)CC1(C)C1C(=O)N(Nc3nnnn3-c3ccccc3Cl)C(=O)C12 (centres unmarked)', 0.51),
  ('CC1=C(C)C2(C)CC1(C)C1C(=O)N(Nc3nnnn3-c3ccccc3)C(=O)C12 (centres unmarked)', 0.90),
  ('Cc1ccc(-n2nnnc2NN2C(=O)C3C(C2=O)C2(C(C)C)C=CC3(C)CC2)cc1 (centres unmarked)', 1.51);

With those in mind, consider the next molecule.
Enquiry: Could you share what log10 of MIC was measured for CC1=C(C)C2(C)CC1(C)C1C(=O)N(Nc3nnnn3-c3ccc([N+](=O)[O-])cc3)C(=O)C12 (centres unmarked) , tested on E. coli 520?
Return: 2.41

----------
test system: S. aureus NCTC 4163; assay: MIC broth microdilution, standard strain; assay type: cell-based; details: Staphylococcus aureus, NCTC4163; S. aureus NCTC 4163, standard strain, 19 h at 35 °C; read-out: minimal inhibitory concentration (MIC)
measured_metric: MIC (µg/mL)
Write down the numeric answer in µg/mL and omit the unit.

Sample records with MIC:
INSERT INTO measurements (compound, unit_symbol, recorded_value) VALUES
  ('CC1=C(C)C2(C)CC1(C)C1C(=O)N(Nc3nnnn3-c3cccc(C(F)(F)F)c3)C(=O)C12 (centres unmarked)', 'µg/mL', 0.2),
  ('CC(C)C12C=CC(C)(CC1)C1C(=O)N(Nc3nnnn3-c3ccccc3Br)C(=O)C12 (centres unmarked)', 'µg/mL', 64),
  ('CC1=C(C)C2(C)CC1(C)C1C(=O)N(Nc3nnnn3-c3ccccc3Br)C(=O)C12 (centres unmarked)', 'µg/mL', 0.1);

Enquiry: Would you kindly share the measured MIC for CC(C)C12C=CC(C)(CC1)C1C(=O)N(Nc3nnnn3-c3ccc([N+](=O)[O-])cc3)C(=O)C12 (centres unmarked) ?
Return: 8

Enquiry: Would you kindly share the measured MIC for CC1=C(C)C2(C)CC1(C)C1C(=O)N(Nc3nnnn3-c3ccccc3)C(=O)C12 (centres unmarked) ?
Return: 2

Enquiry: Would you kindly share the measured MIC for Cc1ccc(-n2nnnc2NN2C(=O)C3C(C2=O)C2(C(C)C)C=CC3(C)CC2)cc1 (centres unmarked) ?
Return: 4

Enquiry: Would you kindly share the measured MIC for O=C(O)c1cn(C2CC2)c2cc(N3CCNCC3)c(F)cc2c1=O [Ciprofloxacin, reference compound] ?
Return: 0.125

----------
Test system: S. epidermidis 5253
Test: MIC broth microdilution, clinical isolate
Format: cell-based
Details: Staphylococcus epidermidis; S. epidermidis 5253, clinical isolate, 19 h at 35 °C; read-out: minimal inhibitory concentration (MIC)
Experimental: In the next stage of the experiment, 8 of 11 compounds were selected for a clinical strain activity evaluation against S. aureus, S. epidermidis, E. coli, K. pneumoniae, and P. aeruginosa. The antimicrobial assays were conducted using reference strains of bacteria derived from international microbe collections: American Type Culture Collection (ATCC) and National Collection of Type Culture (NCTC). […]
Listed molecules paired with reported MIC
Write down the numeric answer in µg/mL and omit the unit.

Sample records with MIC:
INSERT INTO measurements (molecule, measured_metric, unit_symbol, recorded_value) VALUES
  ('CC1=C(C)C2(C)CC1(C)C1C(=O)N(Nc3nnnn3-c3ccc([N+](=O)[O-])cc3)C(=O)C12 (centres unmarked)', 'MIC', 'µg/mL', 16),
  ('CC(C)C12C=CC(C)(CC1)C1C(=O)N(Nc3nnnn3-c3ccccc3Br)C(=O)C12 (centres unmarked)', 'MIC', 'µg/mL', 4),
  ('CC1=C(C)C2(C)CC1(C)C1C(=O)N(Nc3nnnn3-c3ccccc3Cl)C(=O)C12 (centres unmarked)', 'MIC', 'µg/mL', 0.8),
  ('CC1=C(C)C2(C)CC1(C)C1C(=O)N(Nc3nnnn3-c3cccc(C(F)(F)F)c3)C(=O)C12 (centres unmarked)', 'MIC', 'µg/mL', 0.8),
  ('CC1=C(C)C2(C)CC1(C)C1C(=O)N(Nc3nnnn3-c3ccccc3)C(=O)C12 (centres unmarked)', 'MIC', 'µg/mL', 4);

Enquiry: Could you share what MIC was measured for CC1=C(C)C2(C)CC1(C)C1C(=O)N(Nc3nnnn3-c3ccccc3Br)C(=O)C12 (centres unmarked) , tested on S. epidermidis 5253?
Return: 0.8

Enquiry: Could you share what MIC was measured for CC(C)C12C=CC(C)(CC1)C1C(=O)N(Nc3nnnn3-c3ccc([N+](=O)[O-])cc3)C(=O)C12 (centres unmarked) , tested on S. epidermidis 5253?
Return: 16

Enquiry: Could you share what MIC was measured for Cc1ccc(-n2nnnc2NN2C(=O)C3C(C2=O)C2(C(C)C)C=CC3(C)CC2)cc1 (centres unmarked) , tested on S. epidermidis 5253?
Return: 16
